target or system: T1, human GLP-1 receptor (human, UniProt P43220 24-463)
T1 construct: whole, on cells
experiment: competitive binding (SPA): displacement of 125I-GLP-1(7-36)NH2 from BHK cell membranes with human GLP-1 receptor; low HSA (max. 0.001% final)
Numbered stars: 1 amine (or outer) side, 2 acyl side, 3 side chain; on linkers, the order of the positions; unused ones are H or OH. Square brackets hold non-standard residues; d marks the D form. Side chains are listed from the residue outwards. Ends that are not written are not given here. * marks the point of attachment. TtdSuc = 4-[3-[2-[2-(3-aminopropoxy)ethoxy]ethoxy]propylamino]-4-oxobutanoyl; C20 diacid = O=C(O)CCCCCCCCCCCCCCCCCCC(=O)*; γGlu = O=C(O)[C@H](CCC(=O)[*:2])N[*:1]; Trx = NC[C@H]1CC[C@H](C(=O)O)CC1; AEEA = NCCOCCOCC(=O)O; Aib = CC(C)(N)C(=O)O; Inp = O=C(O)C1CCNCC1

[
  {
    "binder": "H[Aib]EGTFTSDVSSYLEEQAAREFIAWLVRGRGK([AEEA-AEEA-γGlu-Trx-C20 diacid])PEGK([AEEA-AEEA-γGlu-Trx-C20 diacid]) (Double-acylated, C-terminally extended GLP-1 analogue made by SPPS; also called 12)",
    "IC50": "1.4 nM"
  },
  {
    "binder": "H[Aib]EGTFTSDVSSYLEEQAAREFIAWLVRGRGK([TtdSuc-γGlu-Inp-C20 diacid])GGSK([TtdSuc-γGlu-Inp-C20 diacid]) (Double-acylated, C-terminally extended GLP-1 analogue made by SPPS; also called 21)",
    "IC50": "1.3 nM"
  }
]

Cited source for all entries: patent US20150011462A1
